Source of measurements: patent US20230357429A1

# SYSTEM: T1, TCE-11 (anti-CD3 scFv H101A; anti-TROP2 wt)
# T1 construct: scFv on the Fab heavy chain; also called TCE-11 (H101A)
# METHOD NOTES: competition ELISA, TCE on captured CD3
Where no end group is shown, it is not given here.
ENDPOINT: pIC50
Numbers only, as −log10 of the molar value.

// query Which pIC50 is reported for this binder? VYCGPEFDESVGCA (cysteine pairing not given here; also: biotinylated, site not given here, mask peptide for the CD3 scFv) [Peptide-73]
// result 5.91
